# SYSTEM_TESTED: human SIRPαBIT expressed on cells (human) (UniProt P78324)
# Sequence (P78324 31-504): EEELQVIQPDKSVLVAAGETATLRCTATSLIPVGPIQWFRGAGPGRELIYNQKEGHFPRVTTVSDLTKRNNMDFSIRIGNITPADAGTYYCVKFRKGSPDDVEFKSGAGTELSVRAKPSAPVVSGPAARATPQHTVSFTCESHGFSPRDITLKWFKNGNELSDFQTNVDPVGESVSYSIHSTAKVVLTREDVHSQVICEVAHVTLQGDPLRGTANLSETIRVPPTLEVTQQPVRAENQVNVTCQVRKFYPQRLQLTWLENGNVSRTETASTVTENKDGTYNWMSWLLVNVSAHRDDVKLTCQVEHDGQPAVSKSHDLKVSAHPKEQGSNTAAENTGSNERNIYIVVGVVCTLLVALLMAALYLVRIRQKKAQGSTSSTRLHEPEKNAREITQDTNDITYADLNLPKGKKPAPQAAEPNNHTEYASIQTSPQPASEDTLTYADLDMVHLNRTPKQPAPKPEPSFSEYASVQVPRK
# METHOD: flow cytometry, ExpiCHO-S cells
Measured EC50, listed per entry.
PROPERTY: EC50 (µg/mL)

INSERT INTO results (binder, unit_of_measurement, value) VALUES
  ('anti-SIRPα antibody 11 humanized (antibody, human IgG1, kappa, L234A L235A, V domains shown, Humanized, human IgG1 LALA / kappa) VH: EVKVEESGGGLVQPGGSLRLSCAASGFSLSSYVMGWVRQAPGKGLEWVSIISSSGSPYYASWVNGRFTISKTSTTMDLQMNSLRAEDTAVYYCARVGPLGVDYFNIWGQGTTVTVSS VL: DIQMTQSPSSLSASVGDRVTITCQAGQSINSYLAWYQQKPGKVPKLLIYYASTLESGVPSRFSGSGSGTDFTLTISSLQPEDVATYYCQSWHYISRSYAFGQGTKVEIKR', 'µg/mL', 0.3),
  ('anti-SIRPα antibody 14 humanized (antibody, human IgG1, V domains shown, Humanized, human IgG1 LALA / kappa) VH: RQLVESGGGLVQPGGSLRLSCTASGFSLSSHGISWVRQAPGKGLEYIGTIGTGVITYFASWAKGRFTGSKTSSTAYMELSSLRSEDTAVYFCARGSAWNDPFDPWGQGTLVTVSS VL: DIEMTQSPSSVSASVGDRVTLTCQASQSVYGNNDLAWYQQKPGQAPKLLIYLASTLATGVPSRFSGSGSGTDFTLTISSLQPEDFATYYCLGGGDDEADNVFGGGTKVEIKR', 'µg/mL', 0.29),
  ('anti-SIRPα antibody 5 (antibody, human IgG1, kappa, L234A L235A, V domains shown, Rabbit variable regions on human IgG1 LALA / kappa) VH: QSVEESGGRLVTPGTPLTLTCTVSGFSLSSYVMGWFRQAAGKGLEYIGYINADGSPYYATWVNGRFTISKTPTTMDLKINSPTTEDTATYFCARVGPLGVDYFNIWGPGTLVTVSL VL: DIVMTQTPASVEAAVGGTVTIKCQASQSINRYLTWYQQKPGQRPKLLIYYASTLESGVPSRFEGSGSGTDYTLTISDLESADAATYYCQSYYYISRTYAFGGGTEVVVKR', 'µg/mL', 0.22),
  ('anti-SIRPα antibody 10 humanized (antibody, human IgG1, kappa, L234A L235A, V domains shown, Humanized, human IgG1 LALA / kappa) VH: KVEESGGGLVQPGGSLRLSCAASGFSLSSYVMGWVRQAPGKGLEWVSIISSSGSPYYASWVNGRFTISKDNSEGMVYLQMNSLRAEDTAVYYCARVGPLGVDYFNIWGQGTTVTVSS VL: DIVMTQSPDSLAVSLGERATINCQAGQSINSYLAWYQQKPGQPPKLLIYYASTLESGVPDRFSGSGSGTDFTLTISSLQAEDVAVYYCQSWHYISRSYAFGGGTKLEIKR', 'µg/mL', 0.2),
  ('anti-SIRPα antibody 4 (antibody, human IgG1, kappa, L234A L235A, V domains shown, Chimeric: rabbit variable regions on human IgG1 LALA / kappa; also called chimeric antibody 4) VH: QSVEESGGRLGTPGTPLTLTCTVSGFSLSSYVMGWFRQAPGKGLEYIGIISSSGSPYYASWVNGRFTISKTSTTMDLKMNSPTTEDTATYFCARVGPLGVDYFNIWGPGTLVTVSL VL: DIVMTQTPSSVEAAVGGTVTIKCQAGQSINSYLAWYQQKPGQRPKLLIYYASTLESGVPSRFKGSGSGTDYTLTISDLESADAATYYCQSWHYISRSYAFGGGTEVVVKR', 'µg/mL', 0.23),
  ('anti-SIRPα antibody 2 (antibody, human IgG1, kappa, L234A L235A, V domains shown, Rabbit variable regions on human IgG1 LALA / kappa) VH: QSVEESGGRLVTPGTPLTLTCTVSGFSLSNYAMHWVRQAPGKGLEWIGIIYTGGATSYATWAKGQFTISKTSTTVDLKITSPTTEDTATYFCARGDRDGYAYFNIWGPGTLVTVSL VL: QIVMTQTPFSVSAVVGGTVTIKCQASHNIGSWLAWYQQKPGQRPKLLIYDASTLASGVSSRFKGSGSGTEFTLTISGVESADAATYYCQQGYGISYVHNVFGGGTEVVVKR', 'µg/mL', 0.27),
  ('anti-SIRPα antibody 8 (antibody, human IgG1, kappa, L234A L235A, V domains shown, Rabbit variable regions on human IgG1 LALA / kappa) VH: QSLEESGGRLVTPGTPLTLTCTASGVDLSNYAMGWVRQAPGKGLEWIGIIYAGGSTSYATWAKGRFTISKTSTTMDLKMTSPTTEDTATYFCARHRSDGYDYFHLWGPGTLVTVSL VL: AIDMTQTPASVSEPVGGTVTIKCQASQSISSWLAWYQQKPGQRPKLLIYDASKLASGVPSRFSGSGSGTEFTLTISGVQSDDAAAYYCQQGYAVSYVENIFGGGTEVVVKR', 'µg/mL', 0.18);

Where these numbers come from: patent US20220195063A1
